Values compiled from ChEMBL document CHEMBL4513216.

PROTOCOL_DESCRIPTION: Toxicity liver stage against HepG2, at 10uM
Format: cell-based
Parameters: test concentration 10 uM, cell line HepG2-A16-CD81EGFP
APPLIED_CONDITIONS: human, HepG2-A16-CD81EGFP cells; read-out: INHIBITION

COMPOUND: CN1CCCC[C@@H]2[C@H]1[C@@H](c1ccccc1)CCN2S(=O)(=O)N1CCCC1
cytotoxicity at 10 µM (%): -1.03
//
COMPOUND: CNCc1ccc(Oc2cncc(C)n2)cc1
cytotoxicity at 10 µM (%): 7.1
//
COMPOUND: O=C(Nc1ccccc1OCCc1ccccn1)N1CCOCC(O)C1 (configuration not stated)
cytotoxicity at 10 µM (%): 4.25
//
COMPOUND: COc1ccc(Cl)cc1-n1nc(C2CCCC2)nc1Cn1cnnn1
cytotoxicity at 10 µM (%): -15.5
//
COMPOUND: Cc1ccc(CN(C)C(C(=O)O)c2ccc3c(c2)OCO3)o1 (configuration not stated)
cytotoxicity at 10 µM (%): 6.35
//
COMPOUND: O=C(Nc1cccc(OC(F)F)c1)C1CN(S(=O)(=O)C2CC2)C1
cytotoxicity at 10 µM (%): 0.696
//
COMPOUND: COc1cccc(CC(=O)N2CC[C@@H](OC)[C@@H]2Cc2cccnc2)c1
cytotoxicity at 10 µM (%): 3.71
//
COMPOUND: O=C1CC(c2ccc(C(=O)O)cc2)c2ncn(-c3cccnc3)c2N1 (configuration not stated)
cytotoxicity at 10 µM (%): -1.64
//
COMPOUND: COCCN1CCCC(c2nc3c([nH]2)CC(C)(C)CNC3=O)C1 (configuration not stated)
cytotoxicity at 10 µM (%): -11.6
//
COMPOUND: Cc1nnc(C(NS(=O)(=O)c2cc(C#N)ccc2C)C(C)C)[nH]1 (configuration not stated)
cytotoxicity at 10 µM (%): 4.98
//
COMPOUND: CCC1CN(C(=O)Cc2coc(-c3ccccc3)n2)CCO1 (configuration not stated)
cytotoxicity at 10 µM (%): 3.06
//
COMPOUND: COC(=O)C1CN(Cc2ccn(-c3ccc(F)cc3)n2)C[C@@H](C)O1 (some centres not stated)
cytotoxicity at 10 µM (%): -4.52
//
COMPOUND: Cc1ccc2c(c1)c(Sc1ccccc1)c(CC(=O)O)n2C
cytotoxicity at 10 µM (%): 3.56
//
COMPOUND: Cc1cc(C(F)(F)F)c2c(C3CCN(S(=O)(=O)N(C)C)CC3)noc2n1
cytotoxicity at 10 µM (%): 3.63
//
COMPOUND: COc1ccc(-c2nc(CNC(C)Cn3cccn3)cs2)cc1 (configuration not stated)
cytotoxicity at 10 µM (%): 4.27
//
COMPOUND: COc1ncc(NS(=O)(=O)c2ccc(F)c(F)c2)c(OC)n1
cytotoxicity at 10 µM (%): -7.76
//
COMPOUND: COC(=O)CSc1nnc2[nH]c(=O)c3c(n12)CCCC3
cytotoxicity at 10 µM (%): -99.8
//
COMPOUND: Cc1cnc(-c2nc(C3CCN(C(=O)Cc4ccsc4)CC3)no2)cn1
cytotoxicity at 10 µM (%): -29.5
//
COMPOUND: O=C(c1ccc(-n2cccc2)c(F)c1)N1CCCN2CCCC2C1 (configuration not stated)
cytotoxicity at 10 µM (%): -2.45
//
COMPOUND: COCCOCC(=O)NC(C#N)c1ccccc1C (configuration not stated)
cytotoxicity at 10 µM (%): -1.65
//
COMPOUND: CC(C)c1ccc(CN2CCCC3(CC2)CN(C)C(=O)O3)cc1 (configuration not stated)
cytotoxicity at 10 µM (%): -3.44
//
COMPOUND: Cc1nc(C)c(C(=O)NCCNC(=O)Cc2ccc(F)cc2)s1
cytotoxicity at 10 µM (%): -5.68
//
COMPOUND: CC(Cn1cccn1)NC(=O)NCCc1cccs1 (configuration not stated)
cytotoxicity at 10 µM (%): -15.3
//
COMPOUND: CNc1cc(C2CCCN(S(=O)(=O)c3cn[nH]c3)C2)ccn1 (configuration not stated)
cytotoxicity at 10 µM (%): -24
//
COMPOUND: CCN1CCCC(O)(CNCc2ccc3c(c2)OCO3)C1 (configuration not stated)
cytotoxicity at 10 µM (%): 2.34
//
COMPOUND: O=C(Nc1nccs1)c1csc(NC2CCCC2)n1
cytotoxicity at 10 µM (%): 42
//
COMPOUND: c1csc(N2CCCN(Cc3noc(C4CC4)n3)CC2)n1
cytotoxicity at 10 µM (%): 3.41
//
COMPOUND: CNCc1n[nH]c(=O)n1-c1ccccc1Oc1ccccc1
cytotoxicity at 10 µM (%): -4.88
//
COMPOUND: Cn1cccc1C(=O)NCc1cn2c(n1)CN(c1ncccn1)CC2
cytotoxicity at 10 µM (%): -109
//
COMPOUND: O=C(Cc1ccsc1)N1CCn2cc(Cn3cncn3)nc2C1
cytotoxicity at 10 µM (%): -142
//
COMPOUND: Cc1cc(C2CCCN2Cc2ccc(S(=O)(=O)N(C)C)o2)on1 (configuration not stated)
cytotoxicity at 10 µM (%): -4.11
//
COMPOUND: COCC(=O)NC[C@H]1C[C@@H]2CCN1C[C@@H]2CN(C)c1ccccc1
cytotoxicity at 10 µM (%): -2.17
//
COMPOUND: O=C1c2cccnc2OC(CN2CCOCC2)CN1CC1CC1 (configuration not stated)
cytotoxicity at 10 µM (%): -6.17
//
COMPOUND: CNC(=O)CN(C)S(=O)(=O)c1c(Br)cc2[nH]c(=O)oc2c1Cl
cytotoxicity at 10 µM (%): 1.36
//
COMPOUND: CCc1ccc2c(c1)C(CCNC(=O)Cc1cccc(F)c1)C(=O)N2 (configuration not stated)
cytotoxicity at 10 µM (%): -49.1
//
COMPOUND: CN(Cc1ccc(Cl)s1)C(=O)c1ccccc1OCC(N)=O
cytotoxicity at 10 µM (%): -9.2
//
COMPOUND: c1cnc(N2CCCC(c3n[nH]c4ncccc34)C2)nc1 (configuration not stated)
cytotoxicity at 10 µM (%): -0.64
//
COMPOUND: CSCCC1c2nc[nH]c2CCN1Cc1ccccc1C#N (configuration not stated)
cytotoxicity at 10 µM (%): -1.57
//
COMPOUND: COc1ccc(S(=O)(=O)NCC(N)c2ccccc2)c(C)c1 (configuration not stated)
cytotoxicity at 10 µM (%): 0.0381
//
COMPOUND: CCOc1ccnc(N2CCN(C(=O)c3ccc(C#N)cc3)CC2)n1
cytotoxicity at 10 µM (%): -10.6
//
COMPOUND: CCS(=O)(=O)N1C[C@H]2CN(Cc3cccnc3)C(=O)[C@H]2C1
cytotoxicity at 10 µM (%): -17.8
//
COMPOUND: Cc1cccc(-n2nc(CC(C)C)nc2CCC(=O)N(C)C)c1
cytotoxicity at 10 µM (%): -9.61
//
COMPOUND: COc1cccc(S(=O)(=O)N2CCCCC2CCN2CCOCC2)c1 (configuration not stated)
cytotoxicity at 10 µM (%): -5.31
//
COMPOUND: CCC(C)N(Cc1cccnc1)C(=O)c1ccc(F)c(O)c1 (configuration not stated)
cytotoxicity at 10 µM (%): 1.87
//
COMPOUND: CN(Cc1ccccn1)C1CCCN(Cc2noc(C3CC3)n2)C1 (configuration not stated)
cytotoxicity at 10 µM (%): 1.82
//
COMPOUND: O=C(NCc1nnc2n1CCCCC2)N(Cc1ccccn1)C1CC1
cytotoxicity at 10 µM (%): 2.46
//
COMPOUND: CC(C)=CCN1C(=O)[C@@H]2CC[C@H]1CN(C(=O)CCc1nnc(Cl)[nH]1)C2
cytotoxicity at 10 µM (%): 2.96
